# protocol: Cytotoxicity assay (resazurin) on RAW 264.7 macrophages
# Type: cell-based, murine
# testParameters: mouse, RAW 264.7 macrophage cells; RAW 264.7 macrophages, 48 h incubation, resazurin; read-out: Cytotoxicity on RAW 264.7 Cells CC50 ± SD
Let's look at some compounds and their measured CC50 at 48 h.
reportedEndpoint: CC50 at 48 h

> print(dat)
                                   compound  reportedendpoint       result
1  Oc1cc(O)c2c(c1)O[C@H](c1ccc(O)c(O)c1)[C@@H](O)C2      CC50 at 48 h  > 400 µg/mL
2  C=C1C2C(OC3CC(=O)OC4(C)COC(=O)CC4C32C)C(OC(=O)C(O)C(C)CC)C2(C)C(c3ccoc3)CC(=O)C12O (stereo not drawn)      CC50 at 48 h  > 400 µg/mL
3  CC1(C)CC[C@]2(C(=O)O)CC[C@]3(C)C(=CC[C@@H]4[C@@]5(C)CC[C@H](O)C(C)(C)[C@@H]5CC[C@]43C)[C@@H]2C1      CC50 at 48 h  > 400 µg/mL

Cited source: paper PMC10609173
